Origin of the recorded values: patent US8969554B2

# System: Monochoria vaginalis
# PROTOCOL DESCRIPTION: Herbicidal activity by paddy field soil treatment (Test Example 1)
# Type: in vivo
# Parameters: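 index 0 to 10 in 10% steps of herbicidal effect with 10 meaning complete death and 0 below 10%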
# ASSAY SETUP: 1000 g of effective component per hectare, evaluated on day 21 after the treatment, criteria of Table 72
Herbicidal effects index number, Monochoria vaginalis overview
RESULT TYPE: Herbicidal effects index number, Monochoria vaginalis

INPUT SMILES: Cn1nc(C(=O)C2=C(O)CCCC2=O)c(=O)n(-c2ccccc2F)c1=O
OBSERVED MEASUREMENT: 10
--
INPUT SMILES: O=C1CCCC(O)=C1C(=O)c1nn(CC(F)(F)F)c(=O)n(-c2ccccc2)c1=O
OBSERVED MEASUREMENT: 10
--
INPUT SMILES: CC(=O)Cn1c(=O)c(C(=O)C2=C(O)CCCC2=O)nn(C)c1=O
OBSERVED MEASUREMENT: 10
--
INPUT SMILES: CC(C)N(c1ccccc1)n1c(=O)c(C(=O)C2=C(O)CCCC2=O)nn(C)c1=O
OBSERVED MEASUREMENT: 10
--
INPUT SMILES: COc1cccc(-n2c(=O)c(C(=O)C3=C(O)CCCC3=O)nn(C)c2=O)c1
OBSERVED MEASUREMENT: 10
--
INPUT SMILES: CON=C(C)Cn1c(=O)c(C(=O)C2=C(O)CCCC2=O)nn(C)c1=O
OBSERVED MEASUREMENT: 10
